# TARGET OR SYSTEM: IDH1 G97D (Homo sapiens, UniProt O75874, G97D)
# Construct: Oligo nucleotides were designed to PCR out the coding region of IDH1 with NdeI at the 5′ end and XhoI at the 3′; Ser-Leu-Glu junction (stop codon changed to Ser, then Leu-Glu)
# Sequence (O75874 whole entry G97D): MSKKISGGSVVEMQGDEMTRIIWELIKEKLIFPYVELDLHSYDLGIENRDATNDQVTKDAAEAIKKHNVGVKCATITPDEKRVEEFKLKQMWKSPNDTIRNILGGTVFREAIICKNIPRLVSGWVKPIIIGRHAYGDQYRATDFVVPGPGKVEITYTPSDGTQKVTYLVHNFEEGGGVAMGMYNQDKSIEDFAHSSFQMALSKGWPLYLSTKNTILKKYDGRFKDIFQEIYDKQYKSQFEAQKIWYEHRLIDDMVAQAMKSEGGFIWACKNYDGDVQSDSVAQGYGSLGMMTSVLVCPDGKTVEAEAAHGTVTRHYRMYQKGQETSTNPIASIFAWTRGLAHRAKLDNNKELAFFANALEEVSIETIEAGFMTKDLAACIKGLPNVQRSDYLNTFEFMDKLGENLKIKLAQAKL
# MEASUREMENT NOTES: IDH1 G97D inhibition assay (NADPH/aKG, diaphorase/resazurin fluorescence readout)
# TEST PARAMETERS: 50 minutes at room temperature
Listed here are molecules together with their documented IC50.

MOL	IC50
O=C1/C(=C/c2ccc(F)cc2)C(CSc2ccc(Cl)cc2)=NN1c1nc2ccccc2s1	1 to 5 µM
N#C/C(=C\c1ccc(-c2cc([N+](=O)[O-])ccc2O)o1)c1nc2ccccc2[nH]1	1 to 5 µM
O=C1NC(=S)S/C1=C\c1ccc(-c2ccc(N3CCOCC3)c([N+](=O)[O-])c2)o1	5 to 10 µM
CCCCC1=NN2C(=N)/C(=C/c3ccc(-c4ccc([NH2+][O-])cc4Cl)o3)C(=O)N=C2S1	1 to 5 µM
